Here we list molecules with their recorded pKi when tested on Plk1 (Homo sapiens).
Sequence (P53350 20-338): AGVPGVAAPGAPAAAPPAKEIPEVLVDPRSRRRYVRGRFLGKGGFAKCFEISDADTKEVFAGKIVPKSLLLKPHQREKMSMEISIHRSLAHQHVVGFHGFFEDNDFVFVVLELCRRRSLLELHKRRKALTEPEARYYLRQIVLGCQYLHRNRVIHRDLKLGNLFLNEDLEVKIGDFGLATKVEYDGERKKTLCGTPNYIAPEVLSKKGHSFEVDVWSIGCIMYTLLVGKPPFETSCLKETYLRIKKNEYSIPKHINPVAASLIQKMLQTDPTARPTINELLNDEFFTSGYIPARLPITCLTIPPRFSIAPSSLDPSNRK
pKi: −log10 of the molar value.
RECORDED ENDPOINT: pKi

MOLECULE	RECORDED ENDPOINT	REPORTED VALUE
COc1cc(C(=O)NC2CCOCC2)ccc1Nc1ncc2c(n1)N(C1CCCC1)CC(C)(C)C(=O)N2C [Compound I-134]	pKi	> 8.00
CNC(=O)c1ccc(Nc2ncc3c(n2)N(C2CCOCC2)CC(C)(C)C(=O)N3C)c(OC)c1 [Compound I-56]	pKi	7.00 to 8.00
COc1cc(C(=O)NC2CCN(CCF)CC2)ccc1Nc1ncc2c(n1)N(C1CCCC1)CC(C)(C)C(=O)N2C [Compound I-77]	pKi	> 8.00
CC[C@H]1CN(C2CCCC2)c2nc(Nc3ccc(C(=O)NC4CCN(C)CC4)cc3OC)ncc2N(C)C1=O [Compound I-113]	pKi	> 8.00
CNC(=O)c1ccc(Nc2ncc3c(n2)N(C2CC2)CC(C)(C)C(=O)N3C)c(OC)c1 [Compound I-30]	pKi	7.00 to 8.00
COc1cc(C(=O)NC2CC2)ccc1Nc1ncc2c(n1)N(C1CCCC1)C[C@@H](C)C(=O)N2C [Compound I-184]	pKi	> 8.00
COc1cc(C(=O)Nc2ncc(C)s2)ccc1Nc1ncc2c(n1)N(C1CCCC1)CC(C)(C)C(=O)N2C [Compound I-236]	pKi	> 8.00
CN1C(=O)C(C)(C)CN(C2CCCC2)c2nc(Nc3cccc(N)c3)ncc21 [Compound I-116]	pKi	7.00 to 8.00
COc1cc(C(=O)NC2CC2)ccc1Nc1ncc2c(n1)N(C1CCCC1)C[C@H](C)C(=O)N2C [Compound I-175]	pKi	> 8.00
CN1C(=O)C(C)(C)CN(C2CCCC2)c2nc(Nc3cccc4cn(C)nc34)ncc21 [Compound I-91]	pKi	7.00 to 8.00
CCC1CN(C2CCCC2)c2nc(Nc3ccc(C(=O)NC)cc3OC)ncc2N(C)C1=O (centres unmarked) [Compound I-190]	pKi	> 8.00
COc1cc(C(=O)NCCN2CCCC2)ccc1Nc1ncc2c(n1)N(C1CCCC1)CC(C)(C)C(=O)N2C [Compound I-34]	pKi	> 8.00
CCCNC(=O)c1ccc(Nc2ncc3c(n2)N(C2CCCC2)CC(C)(C)C(=O)N3C)c(OC)c1 [Compound I-218]	pKi	> 8.00
COc1cc(C(=O)NCCO)ccc1Nc1ncc2c(n1)N(C1CCCC1)CC(C)(C)C(=O)N2C [Compound I-264]	pKi	> 8.00
COc1cc(C(=O)N(C)C)ccc1Nc1ncc2c(n1)N(C1CCCC1)CC(C)(C)C(=O)N2C [Compound I-215]	pKi	7.00 to 8.00
CC(=O)N1CCc2cc(Nc3ncc4c(n3)N(C3CCCC3)CC(C)(C)C(=O)N4C)ccc21 [Compound I-79]	pKi	7.00 to 8.00
COc1cc(C(=O)NC[C@@H]2CCCC[C@@H]2O)ccc1Nc1ncc2c(n1)N(C1CCCC1)CC(C)(C)C(=O)N2C [Compound I-216]	pKi	> 8.00
COc1cc(C(=O)NCCCO)ccc1Nc1ncc2c(n1)N(C1CCCC1)CC(C)(C)C(=O)N2C [Compound I-241]	pKi	> 8.00
COc1cc(C(=O)NC2(CO)CC2)ccc1Nc1ncc2c(n1)N(C1CCCC1)CC(C)(C)C(=O)N2C [Compound I-266]	pKi	> 8.00
COc1cc(C(=O)NC2CCOCC2)ccc1Nc1ncc2c(n1)N(C1CC(F)(F)C1)CC(C)(C)C(=O)N2C [Compound I-171]	pKi	> 8.00
CNC(=O)c1ccc(Nc2ncc3c(n2)N(C2CCCC2)[C@@H]2CCC[C@@H]2C(=O)N3C)c(OC)c1 [Compound I-15]	pKi	7.00 to 8.00
COc1cc(C(=O)NC2CC2)ccc1Nc1ncc2c(n1)N(C1CCCC1)CC(C)(C)C(=O)N2C [Compound I-93]	pKi	> 8.00
COCCNC(=O)c1ccc(Nc2ncc3c(n2)N(C2CCCC2)CCC(=O)N3C)c(OC)c1 [Compound I-11]	pKi	> 8.00
COc1cc(C(=O)NN2CCCC2)ccc1Nc1ncc2c(n1)N(C1CCCC1)CC(C)(C)C(=O)N2C [Compound I-206]	pKi	> 8.00
CNC(=O)c1ccc(Nc2ncc3c(n2)N(CC(C)(C)C)CC(C)(C)C(=O)N3C)c(OC)c1 [Compound I-168]	pKi	7.00 to 8.00
COc1cc(C(=O)NCc2ccc(S(C)(=O)=O)cc2)ccc1Nc1ncc2c(n1)N(C1CCCC1)CC(C)(C)C(=O)N2C [Compound I-214]	pKi	> 8.00
CNC(=O)c1ccc(Nc2ncc3c(n2)N(C2CC4CCC2C4)CC(C)(C)C(=O)N3C)c(OC)c1 (centres unmarked) [Compound I-191]	pKi	> 8.00
COc1cc(C(=O)NC2CCCC2)ccc1Nc1ncc2c(n1)N(C1CCCC1)C[C@H](C)C(=O)N2C [Compound I-173]	pKi	> 8.00
COc1cc(C(=O)N[C@@H]2CC[C@@H](O)C2)ccc1Nc1ncc2c(n1)N(C1CCCC1)CC(C)(C)C(=O)N2C [Compound I-258]	pKi	> 8.00
